Cited source: PubChem BioAssay

- Experiment summary: sensitizers of A549 cells to miR-34 induction, primary screen, imaging, A549 dox-inducible miR-34, nuclei and caspase counts (AID 1347080); also: test concentration not given here
- Condition context: A549 miR-34 inducible, Hoechst nuclei count, 48 h; stronger effect = lower value
Value type: fold change

>>> readout_number("COC1=C[C@@H]2C3Cc4ccc(OC)c(O)c4[C@]2(CCN3C)CC1=O")
0.895
>>> readout_number("CC1CCCC(O)CCCCCc2cc(O)cc(O)c2C(=O)O1 (stereo not given)")
0.901
>>> readout_number("COP(=O)(OC)C(O)C(Cl)(Cl)Cl (stereo not given)")
0.918
>>> readout_number("COc1cccc([C@]2(O)CCCC[C@H]2CN(C)C)c1")
0.9
>>> readout_number("COc1ccc(CC2c3cc(OC)c(OC)cc3CCN2C)cc1OC (stereo not given)")
0.878
>>> readout_number("NC1(c2ccccc2Cl)CCCCC1=O (stereo not given)")
0.898
>>> readout_number("C[C@]12CC[C@@H]3[C@@H](CC[C@@]45O[C@@H]4C(O)=C(C#N)C[C@]35C)[C@@H]1CCC2O (stereo not given in full)")
0.917
>>> readout_number("CCCN1CCc2cc(O)cc3c2[C@H]1Cc1ccc(O)c(O)c1-3")
0.922
>>> readout_number("NC(=NCc1ccc(Cl)cc1)SCCCc1cnc[nH]1")
0.914
>>> readout_number("CCOP(=S)(OCC)Oc1ccc2c(C)c(Cl)c(=O)oc2c1")
0.908
